The origin of these recorded values is patent US7544686B2.

# target_of_assay: α1G T-type Ca^2+ channel (Homo sapiens, UniProt O43497)
# Construct: expressed in transfected cells; host or cells: HEK293 cells, G-418 selected
# Sequence (O43497 whole entry): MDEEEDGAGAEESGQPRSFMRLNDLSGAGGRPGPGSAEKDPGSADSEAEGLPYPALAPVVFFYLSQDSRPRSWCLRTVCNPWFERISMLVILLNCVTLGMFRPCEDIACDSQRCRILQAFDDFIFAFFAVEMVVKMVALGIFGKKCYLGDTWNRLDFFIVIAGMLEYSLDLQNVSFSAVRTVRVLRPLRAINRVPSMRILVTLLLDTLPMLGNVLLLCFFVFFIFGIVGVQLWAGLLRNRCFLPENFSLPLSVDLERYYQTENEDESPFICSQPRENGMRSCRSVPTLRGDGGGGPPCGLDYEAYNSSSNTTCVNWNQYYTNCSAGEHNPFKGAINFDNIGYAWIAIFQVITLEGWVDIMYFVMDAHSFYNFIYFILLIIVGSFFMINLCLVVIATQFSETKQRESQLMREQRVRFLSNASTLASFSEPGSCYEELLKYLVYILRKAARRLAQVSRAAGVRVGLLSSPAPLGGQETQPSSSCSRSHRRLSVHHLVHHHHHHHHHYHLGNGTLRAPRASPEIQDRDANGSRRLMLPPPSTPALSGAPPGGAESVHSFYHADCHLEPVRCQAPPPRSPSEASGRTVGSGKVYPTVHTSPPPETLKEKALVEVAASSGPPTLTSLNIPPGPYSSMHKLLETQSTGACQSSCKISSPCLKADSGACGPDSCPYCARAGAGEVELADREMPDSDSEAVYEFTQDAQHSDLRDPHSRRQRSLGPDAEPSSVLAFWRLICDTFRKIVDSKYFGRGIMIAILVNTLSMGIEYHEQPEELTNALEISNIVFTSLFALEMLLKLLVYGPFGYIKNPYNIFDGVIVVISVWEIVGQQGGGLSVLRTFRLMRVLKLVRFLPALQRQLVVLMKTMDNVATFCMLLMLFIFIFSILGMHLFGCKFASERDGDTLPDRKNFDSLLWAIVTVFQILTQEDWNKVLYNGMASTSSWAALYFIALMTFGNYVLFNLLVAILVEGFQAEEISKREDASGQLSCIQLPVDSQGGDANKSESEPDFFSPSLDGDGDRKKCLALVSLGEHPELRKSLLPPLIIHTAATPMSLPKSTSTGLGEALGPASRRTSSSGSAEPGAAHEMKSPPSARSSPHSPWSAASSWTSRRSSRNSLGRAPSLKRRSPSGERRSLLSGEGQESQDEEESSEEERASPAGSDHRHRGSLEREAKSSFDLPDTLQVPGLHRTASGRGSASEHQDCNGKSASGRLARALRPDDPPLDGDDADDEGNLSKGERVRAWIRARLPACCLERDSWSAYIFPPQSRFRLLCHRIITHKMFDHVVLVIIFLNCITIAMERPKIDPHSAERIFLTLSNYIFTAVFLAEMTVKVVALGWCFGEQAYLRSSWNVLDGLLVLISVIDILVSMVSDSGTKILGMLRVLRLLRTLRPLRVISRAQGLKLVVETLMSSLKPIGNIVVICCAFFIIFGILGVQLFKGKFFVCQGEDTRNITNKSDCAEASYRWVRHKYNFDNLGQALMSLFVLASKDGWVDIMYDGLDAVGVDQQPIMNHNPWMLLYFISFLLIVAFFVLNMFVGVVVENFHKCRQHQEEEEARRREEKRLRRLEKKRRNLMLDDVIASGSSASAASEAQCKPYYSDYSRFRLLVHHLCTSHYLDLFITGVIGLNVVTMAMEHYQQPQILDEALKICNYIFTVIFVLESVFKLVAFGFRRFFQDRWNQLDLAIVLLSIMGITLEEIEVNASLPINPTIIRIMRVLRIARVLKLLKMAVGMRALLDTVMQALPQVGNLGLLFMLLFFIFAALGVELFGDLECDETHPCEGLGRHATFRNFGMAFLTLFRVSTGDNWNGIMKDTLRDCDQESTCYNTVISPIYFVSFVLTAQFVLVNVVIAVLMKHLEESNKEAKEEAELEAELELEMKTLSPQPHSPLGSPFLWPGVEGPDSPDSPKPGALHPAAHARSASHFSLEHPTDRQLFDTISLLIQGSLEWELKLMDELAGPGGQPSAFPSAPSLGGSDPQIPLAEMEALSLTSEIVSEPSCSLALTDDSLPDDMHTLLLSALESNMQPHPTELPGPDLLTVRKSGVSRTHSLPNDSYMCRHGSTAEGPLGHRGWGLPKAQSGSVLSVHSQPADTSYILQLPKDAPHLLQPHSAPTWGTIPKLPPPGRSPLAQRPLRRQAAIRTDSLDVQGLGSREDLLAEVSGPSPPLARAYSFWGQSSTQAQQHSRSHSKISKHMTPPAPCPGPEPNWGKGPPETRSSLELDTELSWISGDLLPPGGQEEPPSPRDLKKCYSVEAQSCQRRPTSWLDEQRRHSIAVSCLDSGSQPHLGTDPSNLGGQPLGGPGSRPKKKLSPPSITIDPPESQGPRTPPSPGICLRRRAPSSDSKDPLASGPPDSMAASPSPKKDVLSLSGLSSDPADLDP
# test_summary: T-type Ca2+ channel blocking activity in HEK293 cells, whole-cell patch clamp
# Type: cell-based
# setup_conditions: 10 μM (0.1% DMSO); peak current, HEK293 cells expressing α1G
# Protocol: In order to evaluate the pharmaceutical effects induced by the compounds of the present invention, the inhibitory effects were examined according to the following procedure. As the first step, those that show more than 50% of inhibition to the calcium channel (α1H) expressed in Xenopus oocytes were screened. For the second step, α1G Ca^2+ channel activities expressed in HEK 293 cells were measured to determine the effective inhibition concentration IC50. […]
measurement_kind: inhibition at 10 µM (%)

>  <compound>
CC(C)Cc1cc(CNCCN2CCN(C(c3ccccc3)c3ccccc3)CC2)nn1C(C)(C)C [compound 84]

>  <measurement_kind>
inhibition at 10 µM

>  <measured_result>
89.9

$$$$
>  <compound>
CCCc1cc(CNCCN2CCN(C(c3ccccc3)c3ccccc3)CC2)nn1C(C)(C)C [compound 82]

>  <measurement_kind>
inhibition at 10 µM

>  <measured_result>
60.5

$$$$
>  <compound>
CCCc1cc(CNCCN2CCN(c3cccc(C)c3C)CC2)nn1C(C)(C)C [compound 15]

>  <measurement_kind>
inhibition at 10 µM

>  <measured_result>
79.4

$$$$
>  <compound>
CCCc1cc(CNCCN2CCN(c3ccc(OC)cc3)CC2)nn1-c1ccccc1 [compound 39]

>  <measurement_kind>
inhibition at 10 µM

>  <measured_result>
91.6

$$$$
>  <compound>
Cc1cc(CNCCN2CCN(C(c3ccccc3)c3ccccc3)CC2)nn1-c1ccccc1 [compound 81]

>  <measurement_kind>
inhibition at 10 µM

>  <measured_result>
97.4

$$$$
>  <compound>
CC(C)Cc1cc(CNCCN2CCN(c3ccccc3)CC2)nn1-c1ccccc1 [compound 7]

>  <measurement_kind>
inhibition at 10 µM

>  <measured_result>
87.9

$$$$
>  <compound>
CCCc1cc(CNCCN2CCN(c3ccc([N+](=O)[O-])cc3)CC2)nn1-c1ccccc1 [compound 51]

>  <measurement_kind>
inhibition at 10 µM

>  <measured_result>
95.3

$$$$
>  <compound>
CCCc1cc(CNCCN2CCN(c3cccc(Cl)c3)CC2)nn1-c1ccccc1 [compound 76]

>  <measurement_kind>
inhibition at 10 µM

>  <measured_result>
75.8

$$$$
>  <compound>
CCCc1cc(CNCCN2CCN(C(c3ccccc3)c3ccc(Cl)cc3)CC2)nn1-c1ccccc1 (stereo not shown) [compound 94]

>  <measurement_kind>
inhibition at 10 µM

>  <measured_result>
100

$$$$
>  <compound>
COc1ccc(N2CCN(CCNCc3cc(CC(C)C)n(-c4ccccc4)n3)CC2)cc1 [compound 42]

>  <measurement_kind>
inhibition at 10 µM

>  <measured_result>
95.6

$$$$
